B1: Histone-lysine N-methyltransferase SETD2, residues 2382 to 2430; numbered along this chain, Q9BYW2 (parent)
chain: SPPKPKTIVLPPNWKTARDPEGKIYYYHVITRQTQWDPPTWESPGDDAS

Variants of: B1
Test: abundance fitness (aPCA) (normalised: wild type 0, dead -1); higher = more abundant; growth selection in yeast, the domain comes from the species named
Settings: Homo sapiens
As shown below, each of these variants has a reported abundance fitness value.
quantity: abundance fitness

SPPKPKTIVLPPNWKTARDPEGKIYYYHVITRQTQWDPPTWSSPGDDAS [E42S] : 0.011
SPPKPKTIVLPPNWKTARDPEGKIYYYHVITRQTQWDPPTWLSPGDDAS [E42L] : -0.412
SPPKPKTIVLPPNWKTARDPEGKIYYYHVITRQTQKDPPTWESPGDDAS [W36K] : -0.006
SPPKPKTIVLPPNWKTARDPEGKIYYYHVITRQTQWDPPTWESPGDIAS [D47I] : -0.337
SPPKPKTIVLPPNWKTARDPEGKIYYYHVITYQTQWDPPTWESPGDDAS [R32Y] : -0.215
SPPKPKTKVLPPNWKTARDPEGKIYYYHVITRQTQWDPPTWESPGDDAS [I8K] : 0.03
SYPKPKTIVLPPNWKTARDPEGKIYYYHVITRQTQWDPPTWESPGDDAS [P2Y] : 0.539
SPPKPKTIVLPPNWKTARDPEGKIYYYHVITRQTQWDPPTWEQPGDDAS [S43Q] : 0.091
SPPKPKTIVLPPNWKTALDPEGKIYYYHVITRQTQWDPPTWESPGDDAS [R18L] : -0.404
SPPKPRTIVLPPNWKTARDPEGKIYYYHVITRQTQWDPPTWESPGDDAS [K6R] : -0.046
SPPKPKTIVLPPNWKTARDPEGKIYYYHVITRQTQWDPPTWENPGDDAS [S43N] : -0.369
SPPKPKNIVLPPNWKTARDPEGKIYYYHVITRQTQWDPPTWESPGDDAS [T7N] : 0.127
SPPKPKTIVLPPMWKTARDPEGKIYYYHVITRQTQWDPPTWESPGDDAS [N13M] : 0.064
SPPKPKTIVLPPNWKTARDLEGKIYYYHVITRQTQWDPPTWESPGDDAS [P20L] : -0.223
SPPKPKTIVLPPNWKTARDPEGKIYYYHVITRQLQWDPPTWESPGDDAS [T34L] : -0.342
